test: MRT last in male C57 mouse at 1 mg/kg, iv measured upto 24 hrs; assay type: ADME, organism-based; conditions: in vivo
recorded_endpoint: MRT last at 24 h (min)

>>> reported_measurement("CC(=O)OC[C@H]1O[C@@H](OC2=C(C)OC(=C(C)C)C2=O)[C@H](OC(C)=O)[C@@H](OC(C)=O)[C@@H]1OC(C)=O")
10.2
>>> reported_measurement("CC(C)=C1OC(C)=C(O[C@@H]2O[C@H](CO)[C@@H](O)[C@H](O)[C@H]2O)C1=O")
19.8

###

tested on: Mus musculus; test: Antiinflammatory activity in male C57BL/6 mouse model of inflammatory bowel disease assessed as recovery of DSS-induced body weight loss at 40 mg/kg/day, po via gavage measured after 14 days relative to control; format: functional; details: time 14 day
The following compounds are listed with their measured Activity values.
recorded_endpoint: Activity (%)

>>> reported_measurement("CC(=O)OC[C@H]1O[C@@H](OC2=C(C)OC(=C(C)C)C2=O)[C@H](OC(C)=O)[C@@H](OC(C)=O)[C@H]1OC(C)=O")
44.8
>>> reported_measurement("COC(=O)[C@H]1O[C@@H](OC2=C(C)OC(=C(C)C)C2=O)[C@H](OC(C)=O)[C@@H](OC(C)=O)[C@@H]1OC(C)=O")
44.8
>>> reported_measurement("CC(=O)OC[C@H]1O[C@@H](OC2=C(C)OC(=C(C)C)C2=O)[C@H](OC(C)=O)[C@@H](OC(C)=O)[C@@H]1OC(C)=O")
49.1
>>> reported_measurement("CC(C)=C1OC(C)=C(O[C@@H]2O[C@H](COC(=O)C(C)(C)C)[C@@H](OC(=O)C(C)(C)C)[C@H](OC(=O)C(C)(C)C)[C@H]2OC(=O)C(C)(C)C)C1=O")
41.6
>>> reported_measurement("O=C(O)c1cc(/N=N/c2ccc(S(=O)(=O)Nc3ccccn3)cc2)ccc1O")
24
